target-or-test-system: T1, FcRn-p3 fusion protein (human, UniProt P55899 24-297; P61769 21-119)
T1 construct: baculovirus expressed; coated on ELISA wells; not shown: amino terminal part of bacteriophage p3 protein and CVDE protein
T1 sequence (P55899 24-297, chain 1 of 2): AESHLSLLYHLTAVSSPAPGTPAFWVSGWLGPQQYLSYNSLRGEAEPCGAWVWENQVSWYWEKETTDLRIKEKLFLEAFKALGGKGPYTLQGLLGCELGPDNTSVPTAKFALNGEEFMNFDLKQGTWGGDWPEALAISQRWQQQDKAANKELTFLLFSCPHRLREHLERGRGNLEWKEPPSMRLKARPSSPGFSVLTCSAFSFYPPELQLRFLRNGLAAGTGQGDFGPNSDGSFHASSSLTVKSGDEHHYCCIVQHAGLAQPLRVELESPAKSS
T1 sequence (P61769 21-119, chain 2 of 2): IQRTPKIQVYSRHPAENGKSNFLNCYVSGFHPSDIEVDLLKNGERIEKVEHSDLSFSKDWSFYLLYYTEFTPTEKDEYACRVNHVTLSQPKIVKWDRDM
assay-procedure: phage ELISA pH6
Rule: YES for Ratio/Fc-WT not less than 5 fold, NO for anything less.

S6A_48 (other, EU numbering) CPPCPAPELLGGPSVFLFPPKPKDTLMISRTPEVTCVVVDVSHEDPEVKFNWYVDGVEVHNAKTKPREEQYNSTYRVVSVLTVLHQDWLNGKEYKCKVSNKALPAPIEKTISKAKGQPREPQVYTLPPSQDELTKNQVSLTCLVKGFYPSDIAVEWESNGQPENNYENTPPVLDSDGSFFLYSKLTVDKSRWQQGNVFSCTVMHEALHYHYTQKSLSLSPGK :: NO

Confirm if Ratio/Fc-WT reported for the binder S5A_26 (other, EU numbering) CPPCPAPELLGGPSVFLFPPKPKDTLMISRTPEVTCVVVDVSHEDPEVKFNWYVDGVEVHNAKTKPREEQYNSTYRVVSVLTVLHRDWLNGKEYKCKVSNKALPAPIERTISKAKGEPREPQVYTLPPSRDELTKNQVSLTCLVKGFYPSDIAVEWESNGQPENNYKTTPPVLDSDGSFFLYSKLTVDKSRWQQGNVFSCSVMHEALHYHYTQKSLSLSPGK is 5 fold or above.
YES

Confirm if Ratio/Fc-WT reported for the binder S5A_43 (other, EU numbering) CPPCSAPELLGGPSVFLFPPKPKDTLMISRTPEVTCVVVDVSHEDPEVKFNWYVDGVELHNAKTKPREEQYNSTYRVVSVLTVLHQDWLNGKEYKCKVSNKALPAPIEKTISKAKGQPREPQVYTLPPSRDELTKNQVSLTCLVKGFYPSDIVVEWESNGQPENNYKTTPPVLDSDGSFFLYSKLTVDKSRWQQGNVFSCSVMHEALHNHYTQKSLSLSPGK is 5 fold or above.
YES

Confirm if Ratio/Fc-WT reported for the binder S4A_07 (other, EU numbering) CPPCPAPELLGGPSVFLFPPKPKDTLMISRTPEVTCVVVDVSHEDPEVKFNWYVDGVEVHNAKTKPREEQYNSTYRVVSVLPVLHQDWLNGKEYKCKVSNKALPAPIEKTISKAKGQPREPQVYTLPPSRDELTKNQVSLTCLVKGFYPSDIAVEWESNGQPETNYKTTPPVLDSDGSFFLYSKLTVDKSRWQQGNVFSCSVMHEALHYHYTQKSLSLSPGK is 5 fold or above.
YES

Confirm if Ratio/Fc-WT reported for the binder S4A_36 (other, EU numbering) CPPCQAPELLGGPSVFLFPPKPKDTLMISRTPEVTCVVADVSHEDPEVKFNWYVDGVEVHNAKTKPREEQYNSTYRVVSVLTVLHQDWLNGKEYKCKVSNKALPAPIEKTISKAKGQPREPQVYTLSPSRDELTKNQVSLTCLVKGFYPSDIVVEWESNGQPENNYKTTPPVLDSDGSFFLYSKLTVDKSRWQQGNVFSCSVMHEALHNHYTQKSLSLSPGK is 5 fold or above.
NO

Confirm if Ratio/Fc-WT reported for the binder L4A_28 (other, EU numbering) CPPCPAPELLGGPSVFLFPPKPKDTLMISRTPEVTCVVVDVSHEDPEVKFNWYVDGVEVHNAKTKPREEQYNSTYRVVSVLTVLHQDWLNGKEYKCKVSNKALPAPIEKTISKAKGQPREPQVYTLPPSRDELTKNQVSLTCLVKGFYPSDIAVEWESNGQPENNYKTTPPVLDSDGSFFLYSKLTVDKSRWQQGNVFSCSVLHEALHSHYTRKSLSLSSGK is 5 fold or above.
YES

Confirm if Ratio/Fc-WT reported for the binder S3A_06 (other, EU numbering) CPPCTTPELLGGPSVFLFPPKPKDTLMISRTPEVTCVVVDVSHEDPEVKFNWYVDGVEVHNAKTKPREEQYNSTYRVVSVLTVLHQDWLNGKEYKCKVSNKALPAPIEKTISKAKGQPREPQVYTLPPSRDELTKNQVSLTCLVKGFYPSDIVVEWESNGQPENNYKTTPPVLDSDGSFFLYSKLTVDKSRWQQGNVFSCSVMHEALHNHYTQKSLSLSPGK is 5 fold or above.
NO

Confirm if Ratio/Fc-WT reported for the binder S4A_17 (other, EU numbering) CPPCPAPELLGGPSVFLFPPKPKDTLMISRTPEVTCVVVDVSHEDPEVKFNWYVDGVEVHNAKTKPREEQYNSTYRAVSVLTVLHQDWLNGKEYKCKVSNKALPAPIEKTISKAKGQPREPQVYTLPPSRDELTKNQVSLTCLVKGFYPSDIAVEWESNGQPETNYKTTPPVLDSDGSFFLYSKLTVDKSRWQQGNVFSCSVMHEALHSHYTQKSLSLSPGK is 5 fold or above.
NO

Confirm if Ratio/Fc-WT reported for the binder B5A_25 (other, EU numbering) CPPCPAPELLGGPSVFLLPPKPKDTLMISRTPEVTCVVVDVSHEDPEVKFNWYVDGVEVHNAKTKPREEQYNSTYRVVSVLTVLHQDWLDGKEYKCKVSNKALPAPIEKTISKAKGQPREPQVYTLPPSRDELTKNQVSLTCLVKGFYPSDIAVEWESNGQPENNYKTTPPVLDSDGSFFLYSKLAVDKSRWQQGNVFSCSVMHEALHSHYTQKSLSLSPGK is 5 fold or above.
NO
